Where do these numbers come from? They come from patent US11701354B2.

target: SHP2 (Homo sapiens (Human), UniProt Q06124); test: SHP2 Allosteric Inhibition Assay (DiFMUP prompt fluorescence); details: 0.25 nM SHP2 activated with 0.5 μM peptide IRS1_pY1172(dPEG8)pY1222; substrate DiFMUP 100 μM
Sequence (Q06124 whole entry): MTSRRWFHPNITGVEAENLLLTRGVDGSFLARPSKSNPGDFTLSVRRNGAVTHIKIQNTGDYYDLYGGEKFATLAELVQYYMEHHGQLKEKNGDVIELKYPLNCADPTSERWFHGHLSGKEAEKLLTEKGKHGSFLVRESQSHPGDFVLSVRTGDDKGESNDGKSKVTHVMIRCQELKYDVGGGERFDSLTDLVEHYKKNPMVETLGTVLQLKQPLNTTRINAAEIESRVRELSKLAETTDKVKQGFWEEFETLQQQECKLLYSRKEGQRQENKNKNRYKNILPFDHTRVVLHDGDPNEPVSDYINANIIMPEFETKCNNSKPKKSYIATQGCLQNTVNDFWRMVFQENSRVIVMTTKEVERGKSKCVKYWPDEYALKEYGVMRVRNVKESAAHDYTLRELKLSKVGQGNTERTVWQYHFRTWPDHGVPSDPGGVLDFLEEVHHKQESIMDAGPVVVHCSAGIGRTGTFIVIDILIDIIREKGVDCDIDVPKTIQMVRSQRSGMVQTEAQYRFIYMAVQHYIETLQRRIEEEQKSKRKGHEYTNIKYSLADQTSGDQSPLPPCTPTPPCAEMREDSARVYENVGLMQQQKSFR
Assignment: determine reported IC50 for the given compounds.

### Prompt # get_value(readout='IC50', item= CN(C[C@@H]1CCC[C@H]1N)c1cnc2c(N3CCCc4ncccc43)n[nH]c2n1 (single isomer, unassigned) )
### Response ≥ 10000 nM

### Prompt # get_value(readout='IC50', item= CN(c1cnc2c(Sc3ccnc4[nH]ccc34)n[nH]c2n1)[C@@H]1CCCC[C@@H]1N )
### Response < 1000 nM

### Prompt # get_value(readout='IC50', item= CN(c1cnc2c(-c3cccc(Cl)c3F)n[nH]c2n1)[C@H]1CCCC[C@@H]1N (mixture of isomers) [Example 19] )
### Response < 1000 nM

### Prompt # get_value(readout='IC50', item= CN(c1cnc2c(N3CCCc4ncccc43)n[nH]c2n1)[C@H]1COC[C@H]1N (single isomer, unassigned) )
### Response ≥ 10000 nM

### Prompt # get_value(readout='IC50', item= CN(c1cnc2c(-c3cccc(Cl)c3F)n[nH]c2n1)[C@@H]1CCC[C@H]1N )
### Response < 1000 nM

### Prompt # get_value(readout='IC50', item= CN(c1cnc2c(N3CCCc4ncccc43)n[nH]c2n1)[C@@H]1COCC[C@@H]1N )
### Response ≥ 10000 nM

### Prompt # get_value(readout='IC50', item= CN(c1cnc2c(N3CCCc4ncccc43)n[nH]c2n1)[C@H]1CCCC[C@H]1N )
### Response ≥ 10000 nM

### Prompt # get_value(readout='IC50', item= CN(c1cnc2c(-c3cccc(Cl)c3F)n[nH]c2n1)[C@@H]1CCCC[C@H]1CN )
### Response < 1000 nM

### Prompt # get_value(readout='IC50', item= CN(c1cnc2c(N3CCCc4ncccc43)n[nH]c2n1)[C@H]1CCOC[C@H]1N )
### Response ≥ 10000 nM

### Prompt # get_value(readout='IC50', item= CN(c1cnc2c(-c3cccc(Cl)c3F)n[nH]c2n1)[C@H]1CCC[C@H]1CN (single isomer, unassigned) )
### Response < 1000 nM

### Prompt # get_value(readout='IC50', item= N[C@@H]1CCCC[C@H]1Nc1cnc2c(-c3cccc(Cl)c3F)n[nH]c2n1 (mixture of isomers) )
### Response 1000 to 10000 nM

### Prompt # get_value(readout='IC50', item= NC[C@@H]1CCCC[C@@H]1Nc1cnc2c(-c3cccc(Cl)c3F)n[nH]c2n1 (single isomer, unassigned) )
### Response < 1000 nM

### Prompt # get_value(readout='IC50', item= CN(c1cnc2c(-c3cccc(Cl)c3F)n[nH]c2n1)[C@H]1CCC[C@@H]1N )
### Response < 1000 nM

### Prompt # get_value(readout='IC50', item= CN(c1cnc2c(-c3cccc(Cl)c3F)n[nH]c2n1)[C@@H]1CCCC[C@@H]1N )
### Response < 1000 nM

### Prompt # get_value(readout='IC50', item= N[C@H]1CCCC[C@@H]1Nc1cnc2c(-c3cccc(Cl)c3F)n[nH]c2n1 )
### Response 1000 to 10000 nM

###

biological target: SHP2 (Homo sapiens (Human), UniProt Q06124); assay: SHP2 Allosteric Inhibition Assay (DiFMUP prompt fluorescence); settings: 0.25 nM SHP2 activated with 0.5 μM peptide IRS1_pY1172(dPEG8)pY1222; substrate DiFMUP 100 μM
pIC50: −log10 of the molar value.
Assignment: determine reported pIC50 for the given compounds.

### Prompt Which pIC50 is reported with SHP2 (Homo sapiens (Human), UniProt Q06124) for this entry: CN(C[C@H]1CCC[C@@H]1N)c1cnc2c(N3CCCc4ncccc43)n[nH]c2n1 (single isomer, unassigned) ?
### Response ≤ 5.00

### Prompt Which pIC50 is reported with SHP2 (Homo sapiens (Human), UniProt Q06124) for this entry: NC[C@H]1CCCC[C@H]1Nc1cnc2c(-c3cccc(Cl)c3F)n[nH]c2n1 (single isomer, unassigned) [Example 17] ?
### Response 5.00 to 6.00

### Prompt Which pIC50 is reported with SHP2 (Homo sapiens (Human), UniProt Q06124) for this entry: CN(c1cnc2c(-c3cccc(Cl)c3F)n[nH]c2n1)[C@H]1CCC[C@H]1N (mixture of isomers) ?
### Response 5.00 to 6.00

### Prompt Which pIC50 is reported with SHP2 (Homo sapiens (Human), UniProt Q06124) for this entry: CN(c1cnc2c(-c3cccc(Cl)c3F)n[nH]c2n1)[C@@H]1CCC[C@@H]1N ?
### Response > 6.00

### Prompt Which pIC50 is reported with SHP2 (Homo sapiens (Human), UniProt Q06124) for this entry: CN(c1cnc2c(-c3cccc(Cl)c3F)n[nH]c2n1)[C@H]1CCCC[C@@H]1CN ?
### Response > 6.00

### Prompt Which pIC50 is reported with SHP2 (Homo sapiens (Human), UniProt Q06124) for this entry: NC[C@@H]1CCCC[C@H]1Nc1cnc2c(-c3cccc(Cl)c3F)n[nH]c2n1 (single isomer, unassigned) ?
### Response 5.00 to 6.00
